Entries and their TGI values follow.
# Test system: HOP-18 NSCLC
# Experimental Protocol: NCI tumour cell line growth inhibition, 48 h

>  <Cpd Smiles>
CCCCCCCCOC(=O)c1cc([N+](=O)[O-])c(Sc2ncnc3nc[nH]c23)c([N+](=O)[O-])c1

>  <TGI (µM)>
11.1

$$$$
>  <Cpd Smiles>
C=C1Cc2cc(OC)c(OC)c(OC)c2-c2ccc(SC)c(=O)cc21

>  <TGI (µM)>
11.9

$$$$
>  <Cpd Smiles>
O=C1C=CC2(C=C1)C[C@H](NC(=O)OCc1ccccc1)C(=O)O2

>  <TGI (µM)>
31.5

$$$$

The origin of these recorded values is PubChem BioAssay (NCI).
